I'd appreciate it if you could supply ED50 values for the items below.
tested on: hypothermic effect caused by reserpine; assay: Reserpine antagonism (elimination of the hypothermic effect caused by reserpine); format: in vivo; details: Mus musculus; mice, oral, 17 h after 2 mg/kg i.p. reserpine; 5 hours; read-out: Reserpine antagonism after 5 hours (ED50)
One number for each entry, in mg/kg.

Record excerpt, results attached:
# Compound, Value Reported
data = [
    ("CCN1Cc2c(ccn2C)C(c2ccc(C)cc2)C1.Cl (stereo not drawn)", 10),
    ("CN1Cc2c(cc(CN3CCOCC3)n2C)C(c2ccccc2)C1 (stereo not drawn)", 10),
    ("CN1Cc2c(cc(CN3CCCC3)n2C)C(c2ccc(Br)cc2)C1 (stereo not drawn) [dimaleate]", 10),
    ("CN1Cc2c(cc(CN3CCCCCC3)n2C)C(c2ccc(Br)cc2)C1 (stereo not drawn) [dimaleate]", 20),
    ("CN1Cc2c(cc(CN3CCCCC3)n2C)C(c2ccc(Br)cc2)C1 (stereo not drawn) [dimaleate]", 40),
    ("CN(CCO)Cc1cc2c(n1C)CN(C)CC2c1ccc(Br)cc1 (stereo not drawn)", 13),
    ("CN1Cc2c(ccn2C)C(c2ccc(Br)cc2)C1 (stereo not drawn)", 40),
    ("Cn1ccc2c1CNCC2c1ccc(Br)cc1.O=C(O)/C=C\\C(=O)O (stereo not drawn)", 30),
]

Record Cc1ccc(C2CN(C)Cc3c2ccn3C)cc1.Cl (stereo not drawn) , field ED50: 16
